Tested on: BT-474
Details: 72 h
Quick reference: EC50, CellTox Green of the listed items.
PROPERTY: EC50, CellTox Green (nM)

>>> observed_result("CC(=O)OC[C@H]1O[C@@H]([S-])[C@H](OC(C)=O)[C@@H](OC(C)=O)[C@@H]1OC(C)=O.CCP(CC)CC.[Au+] [Auranofin]")
646
>>> observed_result("Cc1c(CN2CCN(C(=O)[C@H](C)O)CC2)sc2c(N3CCOCC3)nc(-c3cnc(N)nc3)nc12 [GDC-0980]")
1390
>>> observed_result("Nc1ccccc1NC(=O)c1ccc(CNc2nccc(-c3cccnc3)n2)cc1 [Mocetinostat]")
6830
>>> observed_result("C[C@]12O[C@H](C[C@]1(O)CO)n1c3ccccc3c3c4c(c5c6ccccc6n2c5c31)CNC4=O [Lestaurtinib]")
819

// provenance: the supplement of paper PMC4862054
